Each item that follows carries a reported polymerase ribozyme fitness (log ratio).
B1: TPR 5TU (parent)
chain: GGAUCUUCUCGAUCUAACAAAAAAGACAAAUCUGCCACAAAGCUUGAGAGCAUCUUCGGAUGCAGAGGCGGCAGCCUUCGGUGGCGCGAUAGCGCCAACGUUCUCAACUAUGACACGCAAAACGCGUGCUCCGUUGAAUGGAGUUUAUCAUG

- Variants of: B1
- protocol-summary: polymerase ribozyme fitness, log enrichment relative to wild type (log ratio); higher = more active; in vitro selection for triplet polymerase activity
This sample holds only a part of the variants without activity.
Give the figure only, with no unit attached.

[[record]]
change = "A16G U33G U55A C95U"
property_measured = "polymerase ribozyme fitness (log ratio)"
result_number = -3.89

[[record]]
change = "C99U U144A"
property_measured = "polymerase ribozyme fitness (log ratio)"
result_number = -1.02

[[record]]
change = "G86U A115G"
property_measured = "polymerase ribozyme fitness (log ratio)"
result_number = -2.39

[[record]]
change = "C87U A89U"
property_measured = "polymerase ribozyme fitness (log ratio)"
result_number = -1.2

[[record]]
change = "U82A G83C C123U"
property_measured = "polymerase ribozyme fitness (log ratio)"
result_number = -1.12

[[record]]
change = "C5G A147C"
property_measured = "polymerase ribozyme fitness (log ratio)"
result_number = -0.562

[[record]]
change = "C54U C93U A98G"
property_measured = "polymerase ribozyme fitness (log ratio)"
result_number = -1.41

[[record]]
change = "G59U C96U A121C G126A U146G"
property_measured = "polymerase ribozyme fitness (log ratio)"
result_number = -2.76


Summary for this variant, G48A A137G C149U : polymerase ribozyme fitness (log ratio) is -3.82

Form field polymerase ribozyme fitness (log ratio), entry A73G C76U A142U : -2.11

Entry A37U G42C ; polymerase ribozyme fitness (log ratio) = -3.9
